Molecular target: T1, recombinant human IL6R-his (human, UniProt P08887 20-365)
T1 construct: In house made; the entry includes the C-terminal His tag; also called human IL6R-his protein
T1 sequence: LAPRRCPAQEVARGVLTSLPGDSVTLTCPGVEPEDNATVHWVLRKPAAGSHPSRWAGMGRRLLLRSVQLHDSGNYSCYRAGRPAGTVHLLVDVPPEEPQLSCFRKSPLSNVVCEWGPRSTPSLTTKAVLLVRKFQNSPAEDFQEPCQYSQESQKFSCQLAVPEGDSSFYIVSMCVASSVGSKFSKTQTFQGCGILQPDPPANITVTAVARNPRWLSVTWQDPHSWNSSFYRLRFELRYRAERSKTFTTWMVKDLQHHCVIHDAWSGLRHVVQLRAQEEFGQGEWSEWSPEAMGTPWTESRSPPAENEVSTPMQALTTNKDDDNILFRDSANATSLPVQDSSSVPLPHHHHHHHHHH
Test: SPR Biacore; antibody from diluted cell supernatant captured by anti-human IgG on CM5, human IL6R in flow
Quick reference for koff among some binders
Report only the number, with the unit s⁻¹ understood.

humanized antibody hu1H7-V11 (antibody, human IgG1, kappa, V domains shown, Human IgG1 / kappa) VH: QVQLVQSGAEVKKPGASVKVSCKASGYTFTNYWMHWVRQAPGQGLEWIGEINPTNGRTNYNENFKSRVTLTVDTSTSTVYMELSSLRSEDTAVYYCARLNTHYVFDSWGQGTLVTVSS VL: EIVLTQSPGTLSLSPGERATLSCSVSSSISSNYLHWYQQKPGLSPRLLISRTSTLASGIPARFSGSGSGTEFTLTISRLQSEDFAVYYCQQGSGIPFTFGQGTKLEIKR    0.000202
humanized antibody hu1H7-V6 (antibody, human IgG1, kappa, V domains shown, Human IgG1 / kappa) VH: QVQLVQSGAEVKKPGASVKVSCKASGYTFTNYWMHWVRQAPGQGLEWIGEINPTNGRTNYNENFKSKVTLTVDTSTSTVYMELSSLRSEDTAVYYCARLNTHYVFDSWGQGTLVTVSS VL: EIVLTQSPGTLSLSPGERATLSCSVSSSISSNYLHWYQQKPGLSPRLLISRTSTLASGIPARFSGSGSGTEYTLTISRMQSEDFAVYYCQQGSGIPFTFGQGTKLEIKR    0.000195
humanized antibody hu1H7-V5 (antibody, human IgG1, kappa, V domains shown, Human IgG1 / kappa) VH: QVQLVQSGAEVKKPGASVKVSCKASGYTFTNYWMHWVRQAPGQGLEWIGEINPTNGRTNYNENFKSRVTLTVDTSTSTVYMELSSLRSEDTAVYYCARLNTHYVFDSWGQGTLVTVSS VL: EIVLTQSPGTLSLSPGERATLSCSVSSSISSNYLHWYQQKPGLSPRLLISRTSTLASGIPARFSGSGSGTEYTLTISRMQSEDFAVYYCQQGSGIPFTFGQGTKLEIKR    0.000195

Now look at this entry.
Notebook: humanized antibody hu1H7-V8 (antibody, human IgG1, kappa, V domains shown, Human IgG1 / kappa) VH: QVQLVQSGAEVKKPGASVKVSCKASGYTFTNYWMHWVRQAPGQGLEWIGEINPTNGRTNYNENFKSKVTLTRDTSTSTVYMELSSLRSEDTAVYYCARLNTHYVFDSWGQGTLVTVSS VL: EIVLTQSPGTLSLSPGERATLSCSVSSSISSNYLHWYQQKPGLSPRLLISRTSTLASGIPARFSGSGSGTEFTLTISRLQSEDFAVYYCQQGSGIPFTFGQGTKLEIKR , koff read as 0.000199
